Data provenance: patent EP0093484A2

System: Strep. pneumoniae CN33
test: Human bacteria, MIC by serial dilution in nutrient agar
Format: cell-based
assay.context: Streptococcus pneumoniae, nutrient agar with 5% chocolated horse blood, 18 hours at 37°C, read-out: MIC
Recorded MIC, one value per entry.
Value expressed in µg/mL; do not type the unit.

# molecule, MIC (µg/mL)
data = [
    ("CC(=CC(=O)OCc1cccc(S(C)(=O)=O)c1)CC1OCC(CC2OC2C(C)C(C)O)C(O)C1O (stereo not drawn) [Example 7, m-Methylsulfonylbenzyl monate A]", 1),
    ("CC(=CC(=O)OCc1cccc([S+](C)[O-])c1)CC1OCC(CC2OC2C(C)C(C)O)C(O)C1O (stereo not drawn) [Example 6, m-Methylsulfinylbenzyl monate A]", 25),
]

// moving on: another record for MIC
Record CC(=CC(=O)OC(C)c1ccc(S(C)(=O)=O)cc1)CC1OCC(CC2OC2C(C)C(C)O)C(O)C1O (stereo not drawn) [Example 9, 1-(p-Methylsulfonylphenyl)ethyl monate A] . Reported MIC: 4
